Numbers sourced from ChEMBL document CHEMBL3507680.

- Protocol: Human HepG2 cell viability assay in 384 well format
- Format: toxicity, cell-based
- Parameters: dose 125 nL, time 70.5 hour; concentration not given beside the values
- Cond: HepG2 cells, read-out: Inhibition
Property Label: cytotoxicity at 70.5 h (%)
Your answer should be a plain number; it is taken to be in %.

# count of solved cases: 5
- Compound: "CC(C)C(=O)N1CCCC([C@@H]2C[C@H](C(F)F)n3ncnc3N2)C1 (stereo not given in full)"
  cytotoxicity at 70.5 h (%): -3.96
- Compound: "CCN1N=C(C(=O)N2CCCC(c3noc(C)n3)C2)CCC1=O (stereo not given)"
  cytotoxicity at 70.5 h (%): 22.2
- Compound: "CNC(=O)NC(=O)CN1CCCN(CC(F)(F)F)CC1"
  cytotoxicity at 70.5 h (%): -7.82
- Compound: "O=C(c1cc[nH]n1)N1CCc2cc(Br)sc2C1"
  cytotoxicity at 70.5 h (%): 15.1
- Compound: "Cc1ccc2cccc(S(=O)(=O)N(C)CC3CCN(C)C3)c2n1 (stereo not given)"
  cytotoxicity at 70.5 h (%): -0.784

Give recorded cytotoxicity at 70.5 h. "CNC(=O)[C@H]1C[C@@H]2CN(C(=O)c3occc3C)C[C@@H]2N1S(C)(=O)=O"
-5.67

Give recorded cytotoxicity at 70.5 h. CC(NC(=O)CCOc1ccccc1Cl)c1nnc2n1CCC2 (stereo not given)
-16.2

Give recorded cytotoxicity at 70.5 h. "COC(=O)[C@H]1CN(C(C)=O)CCN1C(C)=O"
-2.71

Give recorded cytotoxicity at 70.5 h. CCNC(=O)N1CCCCC1CCNS(C)(=O)=O (stereo not given)
-10.5

Give recorded cytotoxicity at 70.5 h. "Cc1nc2c(C)cccc2cc1C(=O)N1CCC2(CCN(C)CC2)C1"
3.12

Give recorded cytotoxicity at 70.5 h. CC(CNC(=O)N1CCSCC1)Cc1cccs1 (stereo not given)
4.95
